assay: Cytotoxicity in mock-infected H1-HeLa cells (XTT); assay type: cell-based; conditions: human, two days, read-out: Toxicity CC50
measured_property: CC50 at 2 days

Recorded results for 2 compounds are shown here.
structure_as_smiles: CCOC(=O)/C=C/[C@H](CCC(N)=O)NC(=O)c1cnc2ccccc2n1
CC50 at 2 days: > 100 µM
--
structure_as_smiles: CCOC(=O)/C=C/[C@H](C[C@@H]1CCNC1=O)NC(=O)/C=C/c1cccc(Br)c1
CC50 at 2 days: > 10 µM

Which measured CC50 at 2 days value corresponds to `CCOC(=O)/C=C/[C@H](C[C@@H]1CCNC1=O)NC(=O)c1ccc2cc(C)ccc2c1` ? > 100 µM

----------
molecular target: rhinovirus 3C protease from HRV serotype-14 (Human rhinovirus 14); construct: Recombinant rhinovirus 3C proteases; made in house; assay: Inhibition of rhinovirus 3C protease activity (FRET assay), HRV-14; type: biochemical; conditions: HRV-14 3C protease; progress curves, enzyme start; read-out: Protease Inhibition kobs/I
Sequence (P03303 1538-1719): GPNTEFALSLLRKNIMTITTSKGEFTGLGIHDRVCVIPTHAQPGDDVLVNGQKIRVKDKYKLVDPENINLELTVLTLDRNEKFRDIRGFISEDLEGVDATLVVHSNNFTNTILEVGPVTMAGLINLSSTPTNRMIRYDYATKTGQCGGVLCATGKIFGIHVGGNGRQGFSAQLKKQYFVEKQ
measured_property: kinact/KI
Please append the unit to your numeric answer.

compound: CCOC(=O)/C=C/[C@H](C[C@@H]1CCNC1=O)NC(=O)c1cc2cc(F)ccc2[nH]1 [Compound 39]
test_result: 615 M⁻¹ s⁻¹
//
compound: CCOC(=O)/C=C/[C@H](C[C@@H]1CCNC1=O)NC(=O)/C=C/c1cc(Br)ccc1Br [Compound 64]
test_result: 6850 M⁻¹ s⁻¹

// lookup kinact/KI | system=rhinovirus 3C protease from HRV serotype-14 (Human rhinovirus 14) | key= CCOC(=O)/C=C/[C@H](C[C@@H]1CCNC1=O)NC(=O)c1nc2ccccc2[nH]1 [Compound 10] 55 M⁻¹ s⁻¹

----------
tested on: HRV-14; test: Antirhinoviral H1-HeLa cell culture assay (cell protection, XTT), HRV-14; format: cell-based, human rhinovirus; settings: Rhinovirus B, HRV14, H1-HeLa, 48 h, read-out: Cell Protection EC50
Each item that follows carries a reported pEC50.
Field pEC50 (float): negative decimal logarithm of the concentration in molar.

molecule: CCOC(=O)/C=C/[C@H](C[C@@H]1CCNC1=O)NC(=O)/C=C/c1cc2c(cc1Br)OCO2 [Compound 49]
system: HRV-14
pEC50: 6.31

molecule: CCOC(=O)/C=C/[C@H](C[C@@H]1CCNC1=O)NC(=O)c1ccc2ccccc2c1 [Compound 1]
system: HRV-14
pEC50: 6.82

molecule: CCOC(=O)/C=C/[C@H](C[C@@H]1CCNC1=O)NC(=O)/C=C/c1ccc(C)c(Br)c1 [Compound 23]
system: HRV-14
pEC50: 5.89

molecule: CCOC(=O)/C=C/[C@H](C[C@@H]1CCNC1=O)NC(=O)C1=Cc2cc(Cl)ccc2OC1 [Compound 44]
system: HRV-14
pEC50: 6.80

molecule: CCOC(=O)/C=C/[C@H](C[C@@H]1CCNC1=O)NC(=O)c1ccc2ccc(Br)cc2c1 [Compound 53]
system: HRV-14
pEC50: 6.74

molecule: CCOC(=O)/C=C/[C@H](C[C@@H]1CCNC1=O)NC(=O)N[C@@H](CC(C)C)C(=O)OCC [Compound 24]
system: HRV-14
pEC50: 5.34

Would you mind telling me what pEC50 value was observed for CCOC(=O)/C=C/[C@H](C[C@@H]1CCNC1=O)NC(=O)c1cc2cc(CC)ccc2[nH]1 [Compound 8] ? 5.57
